Entry source: ChEMBL document CHEMBL1201862

- Test system: 786-0
- test_method_notes: NCI tumour cell line growth inhibition, 48 h
Activity calls are given as the source filed them. No stated cut-off is given here; in the data, active = GI50 up to about 1.1 µM and inactive = higher.
Respond with a class label; see class 1 (active), class 0 (inactive)

compound	qualitative_label
CN/C(=N\C#N)N(Cc1ccccc1)Cc1ccccc1	class 0
[O-][S+](c1ccccc1)c1ccc(/N=N/O)nc1 (stereo not given)	class 0
O=C(c1cccs1)N(C(=S)OCc1ccccn1)c1ccccc1	class 0
S=C1CC(c2ccccc2)Sc2ccc(Cl)cc2N1 (stereo not given)	class 0
O=C1CCC[C@]2(CCC[C@@H](O)C2)N1	class 0
COc1ccc2c(c1)[n+]([O-])c(C(=O)C/C(=N/OCCCc1ccccc1)C(=O)NC13CC4CC(CC(C4)C1)C3)c(C)[n+]2[O-]	class 0
N/N=C(/C(=O)Nc1cccc(Cl)c1)C(C(=O)c1ccc(O)cc1O)C1OC(=O)c2ccccc21 (stereo not given)	class 0
N#C/C(=C\c1ccc[nH]1)C(=O)c1ccccc1	class 0

(Q) Recorded test call requested for CCOP(=O)(OCC)C(Nc1ccc(F)cc1)c1cccc([N+](=O)[O-])c1 (stereo not given)
(A) class 0

(Q) Field: outcome | Entry: CCOC(=O)COC1=Nc2cc(OC)c(OC)c3nc(Cl)cc(c23)C1=O
(A) class 0

(Q) Can you look up the reported call for Brc1ccc2c(-c3csc(-c4c[nH]c5ccc(Br)cc45)n3)c[nH]c2c1 for me?
(A) class 0

====

Entries and their measured GI50 follow.
- Tested on: SF-295
- test_method_notes: NCI tumour cell line growth inhibition, 48 h
The source made the active and inactive calls. Cut-off read from the data, not from the text of the source: active = GI50 up to about 1.1 µM and inactive = higher.

Here's what some known entries look like.
>>> df
                                   compound  target_system      endpoint_result
0  N#Cc1c(NC(=S)NCc2ccccc2)sc2c1CCN(N1CCc3c(sc(NC(=S)NCc4ccccc4)c3C#N)C1)C2         SF-295  > 100 µM (inactive)
1  O=[N+]([O-])c1cc(Cl)ccc1S(=O)(=O)c1ccc(Cl)cc1[N+](=O)[O-]         SF-295   15.1 µM (inactive)

(Q) Look at this compound and give its reported GI50. NN/C(Cc1ccccc1)=N/NC(N)=S
(A) > 100 µM (inactive)

(Q) Item CC1=NCC[N+]1(CCc1ccccc1)Cc1ccccc1 (stereo not given) has what recorded GI50?
(A) > 100 µM (inactive)

(Q) Item under review: c1ccc(C2C3=C(CCCC3)Nc3nnnn32)cc1 (stereo not given) . Reported GI50?
(A) 57.4 µM (inactive)

(Q) Consider the compound shown here: O=C(c1cccs1)N(C(=S)OCc1ccccn1)c1ccccc1 What is its recorded GI50?
(A) 40.4 µM (inactive)

(Q) Look at this compound and give its reported GI50. COc1ccc(/C=N/N=C(\N)NO)c(OC)c1C
(A) 21.1 µM (inactive)

====

- Test system: NCI-H23
- test_method_notes: NCI tumour cell line growth inhibition, 48 h
The source made the active and inactive calls. No stated cut-off is given here; in the data, active = GI50 up to about 1.1 µM and inactive = higher.
Listed here: items and their measured GI50.

Here are 6 compounds together with their reported answers.
In [3]: df
Out[3]:
                                   compound  quantity      endpoint_result
0     CC(=O)c1ccc(Oc2c3ccccc3nc3ccccc23)cc1      GI50   22.5 µM (inactive)
1  O=C1c2ccccc2-c2ccc(/N=[N+](/[O-])c3ccc4c(c3)C(=O)c3ccccc3-4)cc21      GI50  > 100 µM (inactive)
2  Cc1cc2cc3c(cc2c(-c2ccc([N+](=O)[O-])cc2)n1)OCO3      GI50     45 µM (inactive)
3  O=c1ccn(/C=C/C(O)C(O)CO)c(=O)[nH]1 (stereo not given)      GI50  > 100 µM (inactive)
4  CCN(CC)CCC(=O)N1C/C(=C/c2ccccc2)C(=O)/C(=C\c2ccccc2)C1      GI50   1.42 µM (inactive)
5  CCOP(=O)(OCC)/C(C#N)=C/c1ccc(-c2ccc(F)cc2F)o1      GI50   14.5 µM (inactive)

(Q) # query: GI50 of entry COC(=O)C(Cc1ccccc1)NC(=O)CNC(=O)CSc1nnc(COc2ccc(Cl)cc2)n1-c1ccccc1 (stereo not given)
(A) 18.7 µM (inactive)

(Q) Any idea what its GI50 is? The compound is COc1cc(CC2c3cc(OC)c(OC)cc3CCN2C)c(C(=O)O)cc1OC (stereo not given)
(A) > 100 µM (inactive)

(Q) Fill in the blank: the reported GI50 of Nc1ccc(CCN2CCN(c3cccc(C(F)(F)F)c3)CC2)cc1 is ____.
(A) > 100 µM (inactive)

(Q) Which measured GI50 value corresponds to O=C(O)c1ccccc1-c1ccccc1C(=O)c1ccccc1 ?
(A) > 100 µM (inactive)

====

List of GI50 values.
- Test system: UACC-257
- test_method_notes: NCI tumour cell line growth inhibition, 48 h
Calls of active or inactive are those of the source. Rule as the data show it: active = GI50 up to about 1.1 µM and inactive = higher.

compound	GI50
CN(C(=O)C12C3C4(C(=O)O)C1(C(=O)N(C)C(C)(C)C)C1C2(C(=O)O)C3(C(=O)N(C)C(C)(C)C)C14C(=O)N(C)C(C)(C)C)C(C)(C)C (stereo not given)	> 100 µM (inactive)

(Q) # query: GI50 of entry O=C(/C=C/c1ccc(O)cc1)c1cc(-c2cc(CCC(=O)c3ccc(O)cc3O)ccc2O)c(O)cc1O
(A) > 50 µM (inactive)

====

- System: NCI-H23
- test_method_notes: NCI tumour cell line growth inhibition, 48 h
Calls of active or inactive are those of the source. No stated cut-off is given here; in the data, active = GI50 up to about 1.1 µM and inactive = higher.
Your reply should match one of these outcome classes. yes for active, no for inactive

These recorded examples may help you get a feel for the data.
>>> df
                                   molecule  target_system  qualitative_label
0  Cc1cn(C2CC(O)C(CO)O2)c(=O)[nH]c1=O (stereo unspecified)        NCI-H23                 no
1  CC(C)=NC(C(=O)O)C(C)(C)S (stereo unspecified)        NCI-H23                 no
2  CCCCc1ccc(-n2c(C)c(COC(=O)NC)c(COC(=O)NC)c2C)cc1        NCI-H23                 no
3  CCCCCCCCCC[S+]([O-])CC(CO)NC(=O)/C=C/c1c(C)nc(O)nc1O (stereo unspecified)        NCI-H23                yes
4  O=C(NC1(C(=O)O)CC1c1ccccc1)c1ccccc1 (stereo unspecified)        NCI-H23                 no

(Q) Per the records of this test, what outcome belongs to COc1cc(/C=C/C(=N\NC(=O)c2ccccc2)c2sc(Nc3ccc(Cl)c(Cl)c3)nc2C)ccc1O ?
(A) no

====

- System: MCF7
- test_method_notes: NCI tumour cell line growth inhibition, 48 h
Active and inactive are the calls of the source. No stated cut-off is given here; in the data, active = GI50 up to about 1.1 µM and inactive = higher.
quantity: GI50

Sample answers from the record:
                                   molecule      endpoint_result
0  Cc1n(-c2ccccc2)c2c([n+]1Cc1ccc([N+](=O)[O-])cc1)C(=O)c1ccccc1C2=O   1.37 µM (inactive)
1  COC(OC)C(O)C1OC=CC1n1cnc2c(N)ncnc21 (stereo not given)  > 100 µM (inactive)
2                 Cc1cc2c(nn1)-c1ccccc1C2=O   > 10 µM (inactive)
3  Cc1ccc([N+](=O)[O-])cc1S(=O)(=O)Nc1ccc(C2=NOC(c3ccccc3O)C2)cc1 (stereo not given)   3.33 µM (inactive)
4           CNC(=S)/C(C#N)=C(\N)N1CCN(C)CC1  > 100 µM (inactive)
5    O=C(c1cccs1)N(C(=S)OCc1ccccn1)c1ccccc1   68.4 µM (inactive)
6  CCCCCCc1cc2cc(C(=O)Nc3cccc(C(F)(F)F)c3)c(=N)oc2cc1O   1.62 µM (inactive)
7  CC1=NN(C(=O)c2ccc(C)cc2)C(=O)C1/N=N/c1ccccc1C(=O)O (stereo not given)  > 100 µM (inactive)

(Q) Item Cc1cccc(N2C(=O)C3c4[nH]c5ccccc5c4C4CCC(C(C)(C)C)CC4C3C2=O)c1C (stereo not given) has what recorded GI50?
(A) > 100 µM (inactive)

(Q) Can you look up the measured GI50 of Fc1ccc(C2NC(=S)NC3=C2CCOc2c3ccc3ccccc23)cc1 (stereo not given) for me?
(A) 15.7 µM (inactive)

====

- Test system: NCI-H226
- test_method_notes: NCI tumour cell line growth inhibition, 48 h
Calls of active or inactive are those of the source. Rule as the data show it: active = GI50 up to about 1.1 µM and inactive = higher.
Reported GI50 by item:

>>> df
                                   compound       endpoint_result
0  CCOC(=O)C1(C(=O)OCC)OC(C)=NC1(C(=O)OC)C(=O)OC  > 62.5 µM (inactive)

Now look at this entry.
(Q) Query: GI50; subject: Cc1n(-c2ccccc2)c2c([n+]1Cc1ccc([N+](=O)[O-])cc1)C(=O)c1ccccc1C2=O
(A) 5.43 µM (inactive)
